assay: Solubility in water at 25° C.; details: 25 °C, Solubility in water at 25° C.
assay.readout: solubility

[[record]]
compound = "COCCOCCOC(=O)Nc1c(C)cc(C)c(C(=O)P(=O)(c2ccccc2)c2ccccc2)c1C [TMDPO-A1, reference compound]"
assay_readout = "solubility"
data_value = "< 10000 µg/mL"

[[record]]
compound = "COCCOCCOCC(=O)Nc1c(C)cc(C)c(C(=O)P(=O)(C(=O)c2c(C)cc(C)c(NC(=O)COCCOCCOC)c2C)c2ccccc2)c1C [BAPO-A1, reference compound]"
assay_readout = "solubility"
data_value = "< 10000 µg/mL"

[[record]]
compound = "Cc1cc(C)c(C(=O)P(=O)(C(=O)c2c(C)cc(C)cc2C)c2ccccc2)c(C)c1 [BAPO, reference compound]"
assay_readout = "solubility"
data_value = "< 1000 µg/mL"

